These data points were gathered from patent US10568879B2.

Tested on: human neutrophils
Experiment: Human neutrophil migration assay
Type: cell-based
Settings: Homo sapiens, Neutrophil, 1 h, read-out: Human neutrophil migration IC50
pIC50: −log10 of the molar value.
Measured pIC50 by item

Output pIC50 of CCn1cc(-c2ccc3c(c2)CCn2c(OC[C@@H]4COCCO4)cc(=O)c(C)c2-3)cn1
7.00 to 11.00

***
Output pIC50 of COc1c(OCC(F)F)ccc2c1CCn1c(NCC3COCCO3)cc(=O)c(C)c1-2 (centres unmarked)
7.00 to 11.00

---

Assay: Chemical stability in aqueous solutions with different pH
Format: physicochemical
Conditions: pH 1.2 hydrochloric acid buffer, 2 h incubation at 37° C., 2 μM
ASSAY_READOUT: % rem. (2 h) pH 1.2

Here's what some known entries look like.
Output % rem. (2 h) pH 1.2 of COc1ccc2c(c1OC)CCn1c(OC[C@@H]3COCCO3)cc(=O)c(C)c1-2 [Compound 12]
*** (>80%)

Output % rem. (2 h) pH 1.2 of Cc1c2n(c(OC[C@@H]3COCCO3)cc1=O)CCc1cc(OCC(F)(F)F)ccc1-2 [Compound 18]
*** (>80%)

Output % rem. (2 h) pH 1.2 of COc1cc2c(cc1OC)-c1c(C)c(=O)cc(OC[C@@H]3COCCO3)n1CC2 [Compound 1]
*** (>80%)

Output % rem. (2 h) pH 1.2 of COc1ccc2c(c1OC)CCn1c(NCC3CCCO3)cc(=O)c(C)c1-2 (centres unmarked) [Compound 10]
*** (>80%)

Could you now consider this next compound?
Output % rem. (2 h) pH 1.2 of Cc1c2n(c(NCC3CCCO3)cc1=O)CCc1cc(OCC(F)(F)F)ccc1-2 (centres unmarked) [Compound 8]
*** (>80%)
